- System: SNB-75 CNS
- METHOD_DESCRIPTION: NCI tumour cell line growth inhibition, 48 h
TGI of 60 µM or higher: TRUE. Under 60 µM: FALSE.

MOLECULE: COc1ccc2c(c1)C=C(C(C)(C)C)NS2(=O)=O
ANSWER_LABEL: TRUE

MOLECULE: Cc1ccc(-c2cc(=O)c3cc(C)c(C)c(C(=O)O)c3o2)cc1[N+](=O)[O-]
ANSWER_LABEL: TRUE

MOLECULE: N[C@@H](Cc1ccc2oc3cc(=O)c4ccccc4c-3nc2c1)C(=O)O
ANSWER_LABEL: TRUE

MOLECULE: COC(=O)c1ccc(/C=C/S(=O)(=O)c2ccccc2)cc1
ANSWER_LABEL: TRUE

MOLECULE: N#Cc1c2ccc([N+](=O)[O-])cc2c(=O)n2c1sc1ccccc12
ANSWER_LABEL: TRUE

MOLECULE: O=C(Nc1nccs1)NS(=O)(=O)n1cnc2ccccc21
ANSWER_LABEL: TRUE

MOLECULE: Nc1nc(Cl)c(C=O)c(NCC2(CO)CCC2)n1
ANSWER_LABEL: TRUE

MOLECULE: C=CC(C)(C)n1cc(C2=C(O)C(=O)C(c3c(CC=C(C)C)[nH]c4ccccc34)=C(O)C2=O)c2ccccc21
ANSWER_LABEL: FALSE

MOLECULE: CCCCCCCCCC[N+](C)(C)C
ANSWER_LABEL: FALSE

MOLECULE: CN1CCN(c2ccc(-c3cccc(CN4CCOCC4)c3)cc2NC(=O)c2c[nH]c(=O)cc2C(F)(F)F)CC1
ANSWER_LABEL: TRUE

MOLECULE: C=C(C)[C@@H]1CC[C@]2(CN)CC[C@]3(C)[C@H](CC[C@@H]4[C@@]5(C)CCC(N)[C@@](C)(CO)[C@@H]5CC[C@]43C)[C@@H]12 (some centres undefined)
ANSWER_LABEL: FALSE

MOLECULE: CC(C)=CCc1c(O)c(C(=O)CC(C)C)c(O)c2c(-c3ccccc3)cc(=O)oc12
ANSWER_LABEL: FALSE

MOLECULE: CCN(CC)CCOc1ccc(Cc2ccccc2)cc1
ANSWER_LABEL: TRUE

MOLECULE: CCOc1cc(/C=C2\N=C(c3ccccc3)N(c3nc4ccccc4s3)C2=O)ccc1O
ANSWER_LABEL: TRUE

MOLECULE: COc1c2occc2cc2ccc(=O)oc12
ANSWER_LABEL: TRUE

MOLECULE: COc1ccc(NS(=O)(=O)c2ccc(N=C3C=C(Nc4ccc(S(=O)(=O)Nc5ccc(OC)nn5)cc4)C(=O)c4ccccc43)cc2)nn1
ANSWER_LABEL: FALSE

MOLECULE: Fc1ccc2c(c1)cc1ccc3cccc4ccc2c1c34
ANSWER_LABEL: TRUE

MOLECULE: CCOc1ccc(N=Cc2ccc3ccccc3n2)cc1
ANSWER_LABEL: TRUE

MOLECULE: COC1C(O)CC(OC2CC(OC3CC(O[C@@H]4C(=O)c5c(cc6cc(OC7CC(OC8CC(O)C(O)C(C)O8)C(O)C(C)O7)c(C)c(O)c6c5O)CC4[C@H](OC)[C@@H](O)C(C)=O)OC(C)C3O)OC(C)C2O)OC1C (some centres undefined)
ANSWER_LABEL: FALSE

MOLECULE: COc1ccc(/C=C2\CCc3ccccc3C2=O)cc1OC
ANSWER_LABEL: TRUE

MOLECULE: c1ccc(N2N=C3N(c4ccccc4)C2N3c2ccccc2)cc1
ANSWER_LABEL: TRUE

MOLECULE: CC(C)(C)C1CCC(=O)C(C(O)CC2CC(=O)N(c3ccccc3)C(=O)C2)C1 (centres undefined)
ANSWER_LABEL: TRUE

MOLECULE: CCC(C)(C)NS(=O)(=O)c1ccccc1
ANSWER_LABEL: TRUE

MOLECULE: COc1ccc(NC(=S)Nc2c(C)n(C)n(-c3ccccc3)c2=O)cc1
ANSWER_LABEL: TRUE

MOLECULE: COc1cc2c3cc1Oc1c(OC)c(OC)cc4c1C(Cc1ccc(O)c(c1)-c1cc(ccc1OC)CC3N(C)CC2)N(C)CC4 (centres undefined)
ANSWER_LABEL: FALSE

MOLECULE: COC(=O)C1=C(O)c2cc3c(cc2[C@H](c2cc(OC)c(OC)c(OC)c2)C1)OCO3
ANSWER_LABEL: TRUE

MOLECULE: C/C(=N\NS(=O)(=O)c1c(C)cc(C)cc1C)c1ccc[n+]([O-])n1
ANSWER_LABEL: FALSE

MOLECULE: S=C1SCN(C2CCCCCCCCCCC2)CN1C1CCCCCCCCCCC1
ANSWER_LABEL: TRUE

MOLECULE: CCN(CC)c1ccc(/C=N/NC(=O)c2ccccc2Nc2ccnc(C(F)(F)F)c2)c(O)c1
ANSWER_LABEL: TRUE

MOLECULE: CCCCn1c(C)c2c(c1C)C(=O)N(CCN1CCN(c3ccccc3Cl)CC1)C2=O
ANSWER_LABEL: TRUE

MOLECULE: CN(/N=C/c1ccccc1C(=O)O)C1=NCCCCN1
ANSWER_LABEL: TRUE

MOLECULE: COC(=O)C1(Cc2ccc(C)cc2)Cc2c(C)cccc2C1=O (centres undefined)
ANSWER_LABEL: TRUE

MOLECULE: CCCCCC(=C/c1ccccc1)/C=N/N=C(N)N
ANSWER_LABEL: FALSE

MOLECULE: C/C(=N\Nc1nc2ccccc2o1)c1cc2ccccc2cn1
ANSWER_LABEL: FALSE
